Biological target: DgcY202–406
Construct: intracellular fragment 202-406 (helical domain 203-221 + GGDEF 222-406) of 406-residue protein, TM domain removed; pET24a, E. coli BL21(DE3), His-tag, labelled by RED-tris-NTA for MST
Assay: microscale thermophoresis (MST)
Details: 25 °C, PBS-T; without HhmR; His-tag protein labelled with RED-tris-NTA
propertyMeasured: pKd
Just the number, please; pKd means minus log10 of the concentration in mol/L.

Exercise: Output measured pKd for this item: Nc1nc2c(ncn2[C@@H]2O[C@@H]3COP(=O)(O)O[C@H]4[C@@H](O)[C@H](n5cnc6c(=O)[nH]c(N)nc65)O[C@@H]4COP(=O)(O)O[C@H]3[C@H]2O)c(=O)[nH]1
Solution: 4.27
